Test: NCI Yeast Anticancer Drug Screen. Data for the bub3 strain (AID 167)
Conditions: S. cerevisiae bub3 mutant strain, at 11.0 µM
About 79,000 compounds went through this panel and 15% of them were active in at least one assay; those are over-represented in the sample as a whole. The source made the active and inactive calls. No stated cut-off is given here; in the data, active means growth inhibition above about 70%; inactive means the rest.
Just give me one of these, please: active, inactive

// outcome(item) with item = CCN(CC)CCNc1ccc2ncn3c4ccc(O)cc4c(=O)c1c23
inactive

// outcome(item) with item = COC(=O)C(=O)CC(=O)c1cccc(OC)c1
inactive

// outcome(item) with item = N#CCCC1C(C#N)C2(Cl)CC1(Cl)C(Cl)=C2Cl (stereo not drawn)
inactive

// outcome(item) with item = CC(C)OC(=O)NNc1cc(Cl)ccc1Cl
inactive

// outcome(item) with item = NC(=S)N1N=C2c3ccccc3CC[C@H]2[C@@H]1c1ccc(Cl)cc1
inactive

// outcome(item) with item = NC(=S)N1N=C2c3ccccc3CC[C@@H]2[C@@H]1c1ccccc1
inactive

====

Assay: NCI Yeast Anticancer Drug Screen. Data for the mlh1 strain (AID 171);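 further: 0% = growth of vehicle-treated control cultures of the same strain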
Details: S. cerevisiae mlh1 strain growth inhibition; at 1.2 µM; active compounds read high
About 79,000 compounds went through this panel and 15% of them were active in at least one assay; those are over-represented in the sample as a whole.
reported-metric: growth inhibition (%)
Form entry: value (%) — number only.

# count of solved cases: 4
compound	growth inhibition [%]
O=C(O)c1cc2c(cc1S(=O)(=O)O)C1C(C3C2C2(Cl)C(Cl)=C(Cl)C3(Cl)C2(Cl)Cl)C2(Cl)C(Cl)=C(Cl)C1(Cl)C2(Cl)Cl (configuration not stated)	-2
O=C(O)c1ccccc1C(=O)OC1CCc2ccccc2C1 (configuration not stated)	-5
CCCCCCCCCCCCCCCCCCNc1nc(=O)n(C2CC(OP(=O)(O)OCC3OC(n4cc(F)c(=O)[nH]c4=O)CC3O)C(CO)O2)cc1F (configuration not stated)	10
O=C1c2ccccc2N2OC3(N4CCCC4)CCCCC3C12c1ccccc1 (configuration not stated)	-46

Measured growth inhibition of CSC(=S)N/N=C/c1ccccc1 : 1

Measured growth inhibition of O=P(C(=S)Nc1c(Cl)cccc1Cl)(c1ccccc1)c1ccccc1 : 10

Measured growth inhibition of CCC(OC(C)=O)C1CC(C(C)C)CCC1C (configuration not stated) : 0

Measured growth inhibition of Cc1ccc(NC(=O)CCC(=O)C(C)C(=O)c2ccccc2)c(C)c1 (configuration not stated) : -2

====

Assay: NCI Yeast Anticancer Drug Screen. Data for the rad50 strain (AID 155);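 further: 0% = growth of vehicle-only cultures of the same strain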
Details: S. cerevisiae rad50 strain growth inhibition; at 33.0 µM
This is part of a sample that, as a whole, favours compounds with a hit. Of some 79,000 tested, about 15% had one in any assay. The source made the active and inactive calls. Cut-off read from the data, not from the text of the source: active = growth inhibition above about 70%; inactive = the rest.
Just give me one of these, please: active, inactive

Observe how each entry below is paired with its result.
                                   compound  label_class
0  COc1cc([C@@H]2c3cc4c(cc3[C@@H](NC(=O)NO)[C@H]3COC(=O)[C@H]23)OCO4)cc(OC)c1O     inactive
1        CC(=O)/C=C/c1cc([N+](=O)[O-])ccc1O       active
2  CC1(C)C(O)OC(O)C1(C)C (centres undefined)     inactive

As a next step, examine the compound that follows.
// outcome(item) with item = COc1cc2oc3ccccc3c(=O)c2cc1CSc1ccccc1N
inactive

====

Test: NCI Yeast Anticancer Drug Screen. Data for the bub3 strain (AID 167)
Settings: S. cerevisiae bub3 mutant strain, at 50.0 µM (retest, dose inferred, filed as 5.0), active compounds read high
This is part of a sample that, as a whole, favours compounds with a hit. Of some 79,000 tested, about 15% had one in any assay.
The class of a record is decided solely by its measured growth inhibition; consult low end (below 60%), middle (60% to below 90%), high end (90% or more)

Observe how each entry below is paired with its result.
>>> df
                                   molecule  label_class
0                         CCOc1ccc(N)c(S)c1      low end
1  O=C(O)c1ccccc1C(=O)OC1CCc2ccccc2C1 (centres undefined)      low end
2                        Cc1ccnc2c(O)cccc12     high end
3  CCOC(=O)C(Cc1c2ccccc2cc2ccccc12)(NC(C)=O)C(=O)OCC       middle
4    O=C(CN(c1ccccc1)c1ccccc1)n1nnc2ccccc21       middle

Tag the class for CCCCCCCCNCCCCCCCC
high end

Tag the class for NCCCSc1ccccc1
middle

====

Test: NCI Yeast Anticancer Drug Screen. Data for the rad18 strain (AID 177)
Settings: S. cerevisiae rad18 mutant growth inhibition; at 3.7 µM; active compounds read high
About 79,000 compounds went through this panel and 15% of them were active in at least one assay; those are over-represented in the sample as a whole.
// reported growth inhibition per item
Form entry: value (%) — number only.

In [3]: df
Out[3]:
                                   molecule    reported_metric  data_value
0      BrC1C2CCC3OC3C12 (centres undefined)  growth inhibition           7
1            Nc1ccc2c(c1)C(=O)c1c(F)cccc1-2  growth inhibition           8
2  O=C(NC(N1CCN(c2cc3c(cc2F)c(=O)c(C(=O)O)cn3C2CC2)CC1)(C(F)(F)F)C(F)(F)F)c1ccccc1  growth inhibition          -2

Measured growth inhibition of Cc1ccc(S(=O)(=O)N/N=C/C(Br)=C(/Br)C(=O)O)cc1 : 36

====

Assay: NCI Yeast Anticancer Drug Screen. Data for the mlh1 strain (AID 171);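 further: 0% = growth of vehicle-treated control cultures of the same strain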
Settings: S. cerevisiae mlh1 strain growth inhibition; at 33.0 µM; active compounds read high
The panel holds about 79,000 compounds, 15% with a hit somewhere; the sample as a whole holds those more often. Active and inactive are the calls of the source. Cut-off read from the data, not from the text of the source: active = growth inhibition above about 70%; inactive = the rest.
reported-metric: growth inhibition

# count of solved cases: 3
>>> print(df.to_string())
                                  compound    reported_metric      data_value
0  CN(C)CCNC(=Cc1ccc2ccccc2[n+]1C)NCCN(C)C  growth inhibition   0% (inactive)
1                        CCOc1ccc(N)c(S)c1  growth inhibition    82% (active)
2        CC(=O)CCC1=C(C)C(=O)C(=O)C(C)=C1O  growth inhibition  13% (inactive)

Measured growth inhibition of CC(C)S(=O)(=O)/C=C\S(=O)(=O)C(C)C : 64% (inactive)

Measured growth inhibition of Cc1cc(C)c(S(=O)(=O)c2ccc(Cl)cc2)c(C)c1 : -5% (inactive)

Measured growth inhibition of Cc1oc2ccccc2c(=O)c1Cn1nnc2ccccc21 : 1% (inactive)

Measured growth inhibition of CCOC(=O)/C(=C\c1ccc(F)cc1)C(C)=O : 97% (active)

Measured growth inhibition of O=S1(=O)CCC2=CC(C(F)(F)F)=CC(C(F)(F)F)=CN21 : 86% (active)

Measured growth inhibition of COc1ccccc1/C=C\C(=O)C1COCN1 (stereo not drawn) : 83% (active)

Measured growth inhibition of CCCCCCC=C(C(=O)OCC)C(=O)OCC : 1% (inactive)

Measured growth inhibition of CCN(CC)C(=S)SC(=S)N(CC)CC : 88% (active)

====

Assay: NCI Yeast Anticancer Drug Screen. Data for the CLN2oe strain (AID 163);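 further: 0% = growth of vehicle-only control cultures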
Conditions: S. cerevisiae CLN2oe strain, at 100.0 µM
Procedure: Growth inhibition of yeast strains with defined genetic alterations is measured as a screen for potential anti-cancer activity. Selected strains with alterations in DNA damage repair or cell cycle control were exposed to compounds and growth inhibition was measured relative to vehicle treated controls. The strain used in this assay is CLN2oe
This is part of a sample that, as a whole, favours compounds with a hit. Of some 79,000 tested, about 15% had one in any assay. Calls of active or inactive are those of the source. Rule as the data show it: active = growth inhibition above about 70%; inactive = the rest.
Just give me one of these, please: y (active), n (inactive)

                                   compound  label_class
0  CC1=CC(C)(C)SC(SSSC2=NC(C)=CC(C)(C)S2)=N1            n
1  CC(=O)O[C@H]1CC[C@@]2(C)C(=CC[C@@H]3C2CC[C@]2(C)C(=O)NC(=O)CC32)C1 (stereo partly drawn)            n
2         O=C(/N=N/C(=O)Oc1ccccc1)Oc1ccccc1            n
3  CCC[CH2][Ge]([CH2]CCC)([CH2]CCC)[O]C(=O)C(O)c1ccccc1 (stereo not drawn)            y
4           CC(C)Cc1ncc(CCCN=C(N)N)[nH]c1=O            n
5  O=[N+]([O-])c1ccc(/C=C\c2ccc3c(c2)OCO3)c([N+](=O)[O-])c1            n

// outcome(item) with item = CCN(CC)C(=S)N/N=C(\C)c1ccccc1O
y

// outcome(item) with item = O=C1C(CCSc2ccccc2)C(=O)N(c2ccccc2)C1c1ccccc1 (stereo not drawn)
y

// outcome(item) with item = O=CC1(F)CC1(c1ccccc1)c1ccccc1 (stereo not drawn)
n
